Test system: HCT-15 colon
Assay: NCI-60 one-dose screen, 48 h
Conditions: 10 µM unless noted
Procedure: Growth inhibition of the HCT-15 human tumor cell line is measured as a screen for anti-cancer activity. Cells are grown in 96 well plates and exposed to the test compound for 48 hours. Compounds are tested at a single concentration, which is 10^-5 M for most compounds. The reported endpoint is percent growth (GI% or GIPRCNT), where numbers from 0 - 100% represent growth inhibition, and numbers from -100% - 0 represent cell death. For example, a value of 40 represents 60% growth inhibition. […]
The panel holds about 83,000 compounds, 20% with a hit somewhere; the sample as a whole holds those more often. Calls of active or inactive are those of the source. The calls were made as follows: active = growth percent below 10; inactive = the rest.
Outcomes: active, inactive

compound | class_assignment
Nc1c(N)c2ccccc2c2ccccc12 | inactive
CC(C)(c1ccccc1)c1cc(O)c(C(C)(C)c2ccccc2)cc1O | inactive
CCCCCCCCN(CCCCCCCC)C(=O)CCl | inactive
Clc1cc(Cl)cc(-c2cnc3nonc3n2)c1 | inactive
CCCCCCCCCCCCNC(=O)N[C@H](C(=O)N[C@H]1/C=C/CCNC(=O)/C=C/[C@H](C)NC1=O)C(C)C | inactive
Nc1c(C(=O)Nc2cccc(Cl)c2)sc2nc3c(cc12)C(=O)CCC3 | inactive
COc1ccc(-c2cc(-c3cn(-c4cccc(Cl)c4)nc3-c3ccc(OC)cc3)[nH]c(=S)n2)cc1 | inactive
COc1ccc(CNc2c3ccccc3nc3ccccc23)cc1F | inactive
CC(C)c1ccc(-c2cnc3nonc3n2)cc1 | inactive
CC1OC(n2c3ccccc3c3c4c(c5c6ccccc6[nH]c5c32)C(=O)N(CCN2CCOCC2)C4=O)CC(O)C1O (stereo not drawn) | inactive
COc1ccccc1/C=N\Nc1ccc([N+](=O)[O-])cn1 | inactive
COc1cc(/C=C\c2cc(/C=C\c3ccc(O)c(OC)c3)n(C(=O)Nc3ccc(C(F)(F)F)cc3)n2)ccc1O | inactive
CCCCCc1c(C)[nH]c(/C=C2\N=C(c3ccc[nH]3)C=C2Oc2ccc(OC)cc2)c1C | active
CN1C(=O)NC(Cc2c[nH]c3c(Cl)cccc23)C1=O (stereo not drawn) | inactive
CN1CCCN(CCNc2nccc(-c3c(-c4cccc(O)c4)nc4sccn34)n2)S1(=O)=O | inactive
C=CC(=O)N1CN(C(=O)C=C)CN(C(=O)C=C)C1 | active
CC(C)(C)[Si](C)(C)OC1[C@@H](O[Si](C)(C)C(C)(C)C)[C@@H](CNC(=O)NC(=O)NC(=O)CI)O[C@H]1n1cnc2c(NC(=O)Nc3ccccc3)ncnc21 (stereo partly drawn) | inactive
CC(C)(CCc1ccccn1)C(=O)CCCc1ccccn1 | inactive

###

test system: OVCAR-3 ovarian; test: NCI-60 one-dose screen, 48 h; conditions: 10 µM unless noted
This is part of a sample that, as a whole, favours compounds with a hit. Of some 83,000 tested, about 20% had one in any assay. Activity calls are given as the source filed them. The calls were made as follows: active = growth percent below 10; inactive = the rest.
Outcomes: t = active, f = inactive

compound | class_assignment
CCc1onc(-c2ccc(OC)cc2)c1-c1ccccc1OCCN(CC)CC | f
CCN(CC)CCNC(=O)n1cc(-c2ccncc2)c(-c2cc(Cl)cc(OC)c2)n1 | f
COc1cccc(/C=N\Nc2ccc([N+](=O)[O-])cn2)c1O | t
O=c1c2cc(Br)cc(Br)c2nc(-c2ccc(Cl)cc2)n1/N=C\c1ccccc1F | f
CC(C)(C)OC(=O)N1CCCN(CCNc2nccc(-c3c(-c4cccc(O)c4)nc4sccn34)n2)S1(=O)=O | f
CCCCCCCC/C=C\CCCCCCCC(=O)OCCCCCC | f
CCC(=O)NC1=C(Cl)C(=O)C(NC(=O)CC)=C(Cl)C1=O | t
O=S(=O)(Cc1ccc(Cl)cc1Cl)c1ccc(Cl)cc1 | t
C=C1C(=O)O[C@H]2[C@H]1CC/C(COC(=O)NCc1cn(C)c3ccccc13)=C\CC[C@@]1(C)O[C@@H]21 | t
COc1ccc(C2=NNC(c3ccc(Oc4nc5c(c(=O)n(C)c(=O)n5C)n4C)c(OC)c3)C2)cc1 (stereo unspecified) | f
Cc1c(C(=O)CCl)c(=O)n(-c2ccccc2)n1C | f
COc1cc(C2CC(=O)Nc3c2cnn3C)cc(OC)c1OC (stereo unspecified) | f
CC(=O)C1CCC2C3CC(C)=C4CC(O)CCC4(C)C3CCC12C (stereo unspecified) | f
CC(C)(C)[Si](C)(C)OC1[C@@H](O[Si](C)(C)C(C)(C)C)[C@@H](CNC(=O)NC(=O)NC(=O)CCl)O[C@H]1n1cnc2c(NC(=O)Nc3ccccc3)ncnc21 (stereo partly specified) | t
CC(=O)NC1C(O[C@H]2C[C@H]3[C@@H]4CC=C5C[C@@H](O)CC[C@]5(C)[C@H]4CC[C@]3(C)[C@H]2[C@H](C)C(=O)CCC(C)C)OCC(O)C1O (stereo partly specified) | f
OCCN(CCO)c1ccc2ccccc2c1 | f
CCN(C(=O)CCl)C(C)(C)C(SSSC(c1ccc(Cl)cc1)C(C)(C)N(CC)C(=O)CCl)c1ccc(Cl)cc1 (stereo unspecified) | f
CCNCCCn1c2c(c3ccc(Cl)cc3c1=O)C(=O)c1cc(OC)cnc1-2 | f
O=C(CSc1nc2c(n1Nc1ccccc1)-c1ccccc1SC2)Nc1nccs1 | f
C/C(=N\NC(=O)CSc1nc2ccccc2c(=O)n1CCc1ccc(S(N)(=O)=O)cc1)c1ccc(Br)cc1 | f
CCCCCCCC/C=C/CCCCCCCC1=NC(C)(C)CN1c1ccccc1 | f
CCCCCCCCCCCCCC1=NC(C)(C)CN1C(C)C | t
NC(N)=N/N=C/c1ccc(Cl)cc1 | f
CCCCOc1nc2ccccc2cc1/C=C/c1cc(/C=C/c2cc3ccccc3nc2OCCCC)n(-c2ccccc2)n1 | f
O=C(C(=O)N1CCCC1)c1cn(CCCn2cc(C(=O)C(=O)N3CCCC3)c3cc(Br)ccc32)c2ccc(Br)cc12 | f
CCN(CC)c1ccc(/C=N/N=C(N)N)cc1 | t
